- Assay Remarks: compound effects on differentiated 3T3-L1 adipocyte viability – cell-based, 3T3-L1 adipocytes, calcein-AM fluorescence, 48 h, basal, profiling panel (AID 1163); also: test concentration not given here
- Measurement Context: 3T3-L1 adipocytes viability, higher = more signal
// assign met if z-score falls strictly below 0.9, else not met (ties count as not met)

Consider the following illustrative entries.
C=C(/C(=C/C[C@@H](OC(C)=O)c1cccc(OCCO)c1)c1cnc2ccccc2c1)C(C)C
not met
CCCCC(O)C1C=CC2C(=O)N(c3ccccc3)C(=O)C2N1Nc1ccc(C#N)cc1 (configuration not stated)
met
COC(=O)[C@@]1(Cc2ccc(F)cc2)[C@H]2c3cc(C(=O)N(C)C)n(CCc4ccc(O)c(O)c4)c3C[C@H]2CN1C(=O)c1ccccc1
met

*Q* Bench note: check whether COCCOC(=O)N1C(=O)[C@@]2(c3cc(C#CCNC(N)=O)ccc31)[C@H](C(=O)Nc1nc3ccccc3s1)[C@H]1C(=O)O[C@H](c3ccccc3)[C@H](c3ccccc3)N1[C@@H]2c1ccccc1OCCO shows z-score below 0.9
*A* met

*Q* Now this one: COCCCNC(=O)[C@@]1(CCS(=O)(=O)c2ccccc2)COC(c2ccc(OCCCO)cc2)=N1
*A* not met

*Q* Now this one: COc1ccc([Si](C)(C)[C@H]2[C@H](CCO)O[C@@]3(C(=O)N(Cc4ccc(NC(=O)[C@H](C)O)cc4)c4ccccc43)[C@@H]2C)cc1
*A* not met
